- Test system: Pseudomonas aeruginosa
- test_details: Antimicrobial activity against Pseudomonas aeruginosa ATCC 27853 after 18 to 20 hrs by microbroth dilution method
- Type: functional
Where a SMILES comes first, the peptide text is derived from it. [ ]: non-standard residue; d: D form.
measured_attribute: MIC

CC[C@H](C)[C@H](NC(=O)[C@H](CCCNC(=N)N)NC(=O)[C@H]1C[C@@H](O)CN1C(=O)[C@@H](CC(C)C)NC(=O)[C@H](Cc1ccccc1)NC(=O)[C@H](CCCCN)NC(=O)[C@H](CO)NC(=O)[C@H](Cc1ccccc1)NC(=O)[C@H](Cc1c[nH]c2ccccc12)NC(=O)[C@@H]1CCCN1C(=O)[C@@H](NC(=O)[C@@H](N)Cc1ccccc1)C(C)C)C(=O)N[C@@H](CC(C)C)C(N)=O : > 50 µM
CC[C@H](C)C(NC(=O)[C@H](CCCNC(=N)N)NC(=O)[C@H](CCCCN)NC(=O)[C@@H](CC(C)C)NC(=O)[C@H](Cc1ccccc1)NC(=O)[C@H](CCCCN)NC(=O)[C@H](CO)NC(=O)[C@H](Cc1ccccc1)NC(=O)[C@H](Cc1c[nH]c2ccccc12)NC(=O)[C@@H]1CCCN1C(=O)[C@@H](NC(=O)[C@@H](N)Cc1ccccc1)C(C)C)C(=O)N[C@@H](CC(C)C)C(N)=O (single isomer, unassigned) : 12.5 µM
CC[C@H](C)[C@H](NC(=O)[C@H](CCCNC(=N)N)NC(=O)[C@H](Cc1c[nH]c2ccccc12)NC(=O)[C@@H](CC(C)C)NC(=O)[C@H](Cc1ccccc1)NC(=O)[C@H](CCCCN)NC(=O)[C@H](CO)NC(=O)[C@H](Cc1ccccc1)NC(=O)[C@H](Cc1c[nH]c2ccccc12)NC(=O)[C@@H]1CCCN1C(=O)[C@@H](NC(=O)[C@@H](N)Cc1ccccc1)C(C)C)C(=O)N[C@@H](CC(C)C)C(N)=O (H-FVPWFSKF[dL]WRIL-NH2) : > 50 µM
CC[C@H](C)C(NC(=O)[C@H](CCCNC(=N)N)NC(=O)[C@@H](CCCCN)NC(=O)[C@@H](CC(C)C)NC(=O)[C@H](Cc1ccccc1)NC(=O)[C@H](CCCCN)NC(=O)[C@H](CO)NC(=O)[C@H](Cc1ccccc1)NC(=O)[C@H](Cc1c[nH]c2ccccc12)NC(=O)[C@@H]1CCCN1C(=O)[C@@H](NC(=O)[C@@H](N)Cc1ccccc1)C(C)C)C(=O)N[C@@H](CC(C)C)C(N)=O (single isomer, unassigned) : 12.5 µM
CCCC[C@H](NC(=O)[C@@H](CC(C)C)NC(=O)[C@H](Cc1ccccc1)NC(=O)[C@H](CCCCN)NC(=O)[C@H](CO)NC(=O)[C@H](Cc1ccccc1)NC(=O)[C@H](Cc1c[nH]c2ccccc12)NC(=O)[C@@H]1CCCN1C(=O)[C@@H](NC(=O)[C@@H](N)Cc1ccccc1)C(C)C)C(=O)N[C@@H](CCCNC(=N)N)C(=O)NC(C(=O)N[C@@H](CC(C)C)C(N)=O)[C@@H](C)CC (single isomer, unassigned) : 50 µM

###

- System: Pseudomonas aeruginosa
- test_details: Antimicrobial activity against Pseudomonas aeruginosa ATCC 27853 after 18 to 20 hrs by microbroth dilution method
- Assay type: functional
Where a SMILES comes first, the peptide text is derived from it. [ ]: non-standard residue; d: D form.
measured_attribute: MIC (µM)

CCCC[C@@H](NC(=O)[C@@H](CC(C)C)NC(=O)[C@H](Cc1ccccc1)NC(=O)[C@H](CCCCN)NC(=O)[C@H](CO)NC(=O)[C@H](Cc1ccccc1)NC(=O)[C@H](Cc1c[nH]c2ccccc12)NC(=O)[C@@H]1CCCN1C(=O)[C@@H](NC(=O)[C@@H](N)Cc1ccccc1)C(C)C)C(=O)N[C@@H](CCCNC(=N)N)C(=O)NC(C(=O)N[C@@H](CC(C)C)C(N)=O)[C@@H](C)CC (single isomer, unassigned) : 50
CC[C@H](C)[C@H](NC(=O)[C@H](CCCNC(=N)N)NC(=O)[C@@H]1CCCN1C(=O)[C@@H](CC(C)C)NC(=O)[C@H](Cc1ccccc1)NC(=O)[C@H](CCCCN)NC(=O)[C@H](CO)NC(=O)[C@H](Cc1ccccc1)NC(=O)[C@H](Cc1c[nH]c2ccccc12)NC(=O)[C@@H]1CCCN1C(=O)[C@@H](NC(=O)[C@@H](N)Cc1ccccc1)C(C)C)C(=O)N[C@@H](CC(C)C)C(N)=O (H-FVPWFSKF[dL]PRIL-NH2) : 50
CC[C@H](C)[C@H](NC(=O)[C@H](CCCNC(=N)N)NC(=O)[C@@H](Cc1c[nH]c2ccccc12)NC(=O)[C@@H](CC(C)C)NC(=O)[C@H](Cc1ccccc1)NC(=O)[C@H](CCCCN)NC(=O)[C@H](CO)NC(=O)[C@H](Cc1ccccc1)NC(=O)[C@H](Cc1c[nH]c2ccccc12)NC(=O)[C@@H]1CCCN1C(=O)[C@@H](NC(=O)[C@@H](N)Cc1ccccc1)C(C)C)C(=O)N[C@@H](CC(C)C)C(N)=O (H-FVPWFSKF[dL][dW]RIL-NH2) : 50

###

- System: HaCaT
- test_details: Cytotoxicity against human HaCaT cells at 25 uM after 24 hrs by MTT assay relative to control
- Type: cell-based
Where a SMILES comes first, the peptide text is derived from it. [ ]: non-standard residue; d: D form.
measured_attribute: Activity (%)

CC[C@H](C)[C@H](NC(=O)[C@H](CCCNC(=N)N)NC(=O)[C@H]1C[C@@H](O)CN1C(=O)[C@@H](CC(C)C)NC(=O)[C@H](Cc1ccccc1)NC(=O)[C@H](CCCCN)NC(=O)[C@H](CO)NC(=O)[C@H](Cc1ccccc1)NC(=O)[C@H](Cc1c[nH]c2ccccc12)NC(=O)[C@@H]1CCCN1C(=O)[C@@H](NC(=O)[C@@H](N)Cc1ccccc1)C(C)C)C(=O)N[C@@H](CC(C)C)C(N)=O : 0
CC[C@H](C)[C@H](NC(=O)[C@H](CCCNC(=N)N)NC(=O)CNC(=O)[C@@H](CC(C)C)NC(=O)[C@H](Cc1ccccc1)NC(=O)[C@H](CCCCN)NC(=O)[C@H](CO)NC(=O)[C@H](Cc1ccccc1)NC(=O)[C@H](Cc1c[nH]c2ccccc12)NC(=O)[C@@H]1CCCN1C(=O)[C@@H](NC(=O)[C@@H](N)Cc1ccccc1)C(C)C)C(=O)N[C@@H](CC(C)C)C(N)=O (H-FVPWFSKF[dL]GRIL-NH2) : 57.52
CC[C@H](C)[C@H](NC(=O)[C@H](CCCNC(=N)N)NC(=O)[C@@H]1CCCN1C(=O)[C@@H](CC(C)C)NC(=O)[C@H](Cc1ccccc1)NC(=O)[C@H](CCCCN)NC(=O)[C@H](CO)NC(=O)[C@H](Cc1ccccc1)NC(=O)[C@H](Cc1c[nH]c2ccccc12)NC(=O)[C@@H]1CCCN1C(=O)[C@@H](NC(=O)[C@@H](N)Cc1ccccc1)C(C)C)C(=O)N[C@@H](CC(C)C)C(N)=O (H-FVPWFSKF[dL]PRIL-NH2) : 77.06

###

- System: HaCaT
- test_details: Cytotoxicity against human HaCaT cells at 25 uM after 24 hrs by MTT assay relative to control
- Format: cell-based
Where a SMILES comes first, the peptide text is derived from it. [ ]: non-standard residue; d: D form. Aic = NC1(C(=O)O)Cc2ccccc2C1
Activity reference
measured_attribute: Activity (%)

CC[C@H](C)[C@H](NC(=O)[C@H](CCCNC(=N)N)NC(=O)C1(NC(=O)[C@@H](CC(C)C)NC(=O)[C@H](Cc2ccccc2)NC(=O)[C@H](CCCCN)NC(=O)[C@H](CO)NC(=O)[C@H](Cc2ccccc2)NC(=O)[C@H](Cc2c[nH]c3ccccc23)NC(=O)[C@@H]2CCCN2C(=O)[C@@H](NC(=O)[C@@H](N)Cc2ccccc2)C(C)C)Cc2ccccc2C1)C(=O)N[C@@H](CC(C)C)C(N)=O (H-FVPWFSKF[dL][Aic]RIL-NH2) : 88.72
CC[C@H](C)C(NC(=O)[C@H](CCCNC(=N)N)NC(=O)[C@@H](CCCCN)NC(=O)[C@@H](CC(C)C)NC(=O)[C@H](Cc1ccccc1)NC(=O)[C@H](CCCCN)NC(=O)[C@H](CO)NC(=O)[C@H](Cc1ccccc1)NC(=O)[C@H](Cc1c[nH]c2ccccc12)NC(=O)[C@@H]1CCCN1C(=O)[C@@H](NC(=O)[C@@H](N)Cc1ccccc1)C(C)C)C(=O)N[C@@H](CC(C)C)C(N)=O (single isomer, unassigned) : 28.22
CC[C@H](C)[C@H](NC(=O)[C@H](CCCNC(=N)N)NC(=O)[C@H]1CCCN1C(=O)[C@@H](CC(C)C)NC(=O)[C@H](Cc1ccccc1)NC(=O)[C@H](CCCCN)NC(=O)[C@H](CO)NC(=O)[C@H](Cc1ccccc1)NC(=O)[C@H](Cc1c[nH]c2ccccc12)NC(=O)[C@@H]1CCCN1C(=O)[C@@H](NC(=O)[C@@H](N)Cc1ccccc1)C(C)C)C(=O)N[C@@H](CC(C)C)C(N)=O (H-FVPWFSKF[dL][dP]RIL-NH2) : 0
